Tested on: NCI-H522
Assay: NCI tumour cell line growth inhibition, 48 h
The source made the active and inactive calls. Cut-off read from the data, not from the text of the source: active = GI50 up to about 1.1 µM and inactive = higher.
Would you mind telling me the reported GI50 of each entry?

CN(CCNC(=O)c1n[nH]c2c1Cc1ccccc1-2)CCNC(=O)c1n[nH]c2c1Cc1ccccc1-2    17.5 µM (inactive)
O=C(O)CNS(=O)(=O)c1ccc(NC(=O)CI)cc1    2.16 µM (inactive)

Quick request: GI50 for each listed item, please.
1. CC(=O)OC(C[C@H](C)[C@@H]1CC[C@]2(C)C3=CCC4C(C)(C)C(=O)CC[C@]4(C)C3CCC12C)C1OC1(C)C (stereo not given in full)
2. O=C1C(CN2CCOCC2)CCCC1CN1CCOCC1 (stereo not given)
3. COc1cc(C(c2cc3c(cc2O)OCO3)N2CCCCC2)cc(OC)c1OC (stereo not given)
4. O=C1CCC2(CC1CCSc1ccccc1)OCCO2 (stereo not given)
5. Clc1ccc(SCCCCCCCCCCSc2ccc(Cl)cc2)cc1
6. C[N+](C)(C)CCCCCc1c2nc(c(CCCCC[N+](C)(C)C)c3ccc([nH]3)c(CCCCC[N+](C)(C)C)c3nc(c(CCCCC[N+](C)(C)C)c4ccc1[nH]4)C=C3)C=C2
7. NCCCc1ccc2oc3ccccc3c2c1
8. CCOC(=O)Nn1cnnc1Cc1ccccc1

RESULT:
1. 12.9 µM (inactive)
2. 0.0597 µM (active)
3. 11.8 µM (inactive)
4. > 100 µM (inactive)
5. > 100 µM (inactive)
6. > 100 µM (inactive)
7. 17.1 µM (inactive)
8. > 100 µM (inactive)
